FYI, the data here is from patent US20190142963A1.

Biological target: T1, human Klotho β (human, UniProt Q86Z14 1-1044)
T1 sequence (looked up): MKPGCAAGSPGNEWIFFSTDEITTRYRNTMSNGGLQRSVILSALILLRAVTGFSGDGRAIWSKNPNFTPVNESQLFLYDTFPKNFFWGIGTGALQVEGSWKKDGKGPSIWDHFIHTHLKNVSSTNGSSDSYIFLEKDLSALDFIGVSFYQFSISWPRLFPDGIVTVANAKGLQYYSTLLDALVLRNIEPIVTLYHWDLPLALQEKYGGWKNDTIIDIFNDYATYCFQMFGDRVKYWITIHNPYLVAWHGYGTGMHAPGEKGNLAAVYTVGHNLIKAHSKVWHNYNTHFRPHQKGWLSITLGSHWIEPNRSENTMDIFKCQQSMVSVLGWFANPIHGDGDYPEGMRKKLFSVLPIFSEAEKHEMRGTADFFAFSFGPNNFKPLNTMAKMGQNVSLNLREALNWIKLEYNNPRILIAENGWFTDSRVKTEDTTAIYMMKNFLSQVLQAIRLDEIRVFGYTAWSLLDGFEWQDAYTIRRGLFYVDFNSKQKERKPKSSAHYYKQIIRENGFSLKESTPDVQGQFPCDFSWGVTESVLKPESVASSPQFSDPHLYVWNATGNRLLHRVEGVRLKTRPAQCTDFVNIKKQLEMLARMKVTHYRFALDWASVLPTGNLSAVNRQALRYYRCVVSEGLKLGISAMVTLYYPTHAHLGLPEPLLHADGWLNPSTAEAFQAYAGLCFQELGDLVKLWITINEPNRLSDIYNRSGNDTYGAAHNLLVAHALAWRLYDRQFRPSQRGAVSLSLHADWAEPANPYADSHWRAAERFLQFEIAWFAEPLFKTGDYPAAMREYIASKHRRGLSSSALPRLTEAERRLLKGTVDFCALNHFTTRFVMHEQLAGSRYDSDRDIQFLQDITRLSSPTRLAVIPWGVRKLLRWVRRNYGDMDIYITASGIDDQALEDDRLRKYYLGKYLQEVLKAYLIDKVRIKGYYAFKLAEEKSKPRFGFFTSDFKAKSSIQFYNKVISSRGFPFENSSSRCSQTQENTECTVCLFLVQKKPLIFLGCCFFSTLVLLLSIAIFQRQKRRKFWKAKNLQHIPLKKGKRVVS
Test: cell-based or functional assay
Non-standard residues stand in square brackets, D forms with d. No end group written: not given here.
readout_label: IC50 of antagonism of FGF21 (assay of Example 1) (µM)

1 = PPDVGSSDPLSMVGPSQG[dR]SPSYAS-NH2 [FGF21 D19]
2 = PPDVGSSDPLSMVGPS[dQ]GRSPSYAS-NH2 [FGF21 C25 d17]
3 = PPDVGSSDPLSMVG[dP]SQGRSPSYAS-NH2 [FGF21 C25 d15]
Inquiry: Exam item: list the entries in increasing order of IC50 of antagonism of FGF21 (assay of Example 1). Kindly provide the labels arranged according to the requested ordering.
Reply text: 1, 2, 3
